All values here come from patent US20230295197A1.

- target_desc: STAT6 (Homo sapiens)
- Construct: endogenous in cells; host or cells: MOLM-16, KU-812, SKNO1, MB231, L1236
- Sequence (P42226 whole entry): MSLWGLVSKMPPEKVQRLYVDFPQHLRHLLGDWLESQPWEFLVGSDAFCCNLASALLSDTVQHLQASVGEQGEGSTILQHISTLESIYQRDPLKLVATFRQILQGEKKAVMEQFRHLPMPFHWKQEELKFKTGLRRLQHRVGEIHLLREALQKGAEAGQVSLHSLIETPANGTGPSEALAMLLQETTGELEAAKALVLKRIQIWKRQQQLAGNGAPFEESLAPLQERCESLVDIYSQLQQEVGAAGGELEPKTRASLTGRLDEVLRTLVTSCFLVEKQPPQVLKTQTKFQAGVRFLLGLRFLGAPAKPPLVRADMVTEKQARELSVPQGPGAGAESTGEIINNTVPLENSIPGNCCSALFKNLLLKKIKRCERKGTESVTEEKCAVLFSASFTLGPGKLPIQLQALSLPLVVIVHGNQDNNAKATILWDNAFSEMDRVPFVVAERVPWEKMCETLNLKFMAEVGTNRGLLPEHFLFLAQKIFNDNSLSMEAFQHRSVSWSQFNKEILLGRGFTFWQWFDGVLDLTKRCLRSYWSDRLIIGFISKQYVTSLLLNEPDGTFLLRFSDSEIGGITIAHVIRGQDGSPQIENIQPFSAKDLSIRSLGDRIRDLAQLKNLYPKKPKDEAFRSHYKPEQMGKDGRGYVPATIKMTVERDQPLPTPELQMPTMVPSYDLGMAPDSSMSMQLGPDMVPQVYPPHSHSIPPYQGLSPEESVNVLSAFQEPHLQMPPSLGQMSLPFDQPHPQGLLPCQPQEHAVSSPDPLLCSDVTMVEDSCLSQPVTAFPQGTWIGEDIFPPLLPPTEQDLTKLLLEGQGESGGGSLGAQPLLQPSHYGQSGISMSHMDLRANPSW
- test_details: Immunoblotting (Western blot) analysis of STAT6 degradation efficiency of degraders in treated cells
- Format: cell-based
- condition_label: MOLM-16 cells, numeric bound, read-out: DC50 S6 MOLM-16
assay_metric: DC50

>  <compound>
CC(C)(C)[C@H](NC(=O)c1cc2cc(C(F)(F)P(=O)(O)O)ccc2s1)C(=O)N1CCN(C(=O)CCCC#Cc2ccc3c(c2)CN(C2CCC(=O)NC2=O)C3=O)C[C@H]1C(=O)N1CCO[C@H](c2ccccc2)C1 (stereo partly shown)

>  <target_desc>
STAT6 (Homo sapiens)

>  <reported_result>
> 300 nM

$$$$
>  <compound>
CC(C)(C)[C@H](NC(=O)c1cc2cc(C(F)(F)P(=O)(O)O)ccc2s1)C(=O)N1CCC[C@H]1C(=O)N1C[C@@H](Oc2ccccc2)C[C@H]1C(=O)NCCCC#Cc1cccc2c1CN(C1CCC(=O)NC1=O)C2=O (stereo partly shown)

>  <target_desc>
STAT6 (Homo sapiens)

>  <reported_result>
> 300 nM

$$$$
>  <compound>
CC(C)(C)[C@H](NC(=O)c1cc2cc(C(F)(F)P(=O)(O)O)ccc2s1)C(=O)N1C[C@@H](OCCCCCCC#Cc2cccc3c2CN(C2CCC(=O)NC2=O)C3=O)C[C@H]1C(=O)N1CCOC(c2ccc(F)c(Cl)c2)C1 (stereo partly shown)

>  <target_desc>
STAT6 (Homo sapiens)

>  <reported_result>
> 300 nM

$$$$
>  <compound>
CC(C)(C)[C@H](NC(=O)c1cc2cc(C(F)(F)P(=O)(O)O)ccc2s1)C(=O)N1C[C@H](OCCCCCC#Cc2ccc3c(c2)CN(C2CCC(=O)NC2=O)C3=O)C[C@H]1C(=O)N1CCC[C@H](c2ccccc2)C1 (stereo partly shown)

>  <target_desc>
STAT6 (Homo sapiens)

>  <reported_result>
> 300 nM

$$$$
>  <compound>
CC(C)(C)[C@H](NC(=O)c1cc2cc(C(F)(F)P(=O)(O)O)ccc2s1)C(=O)N1C[C@H](OCCCCCC#Cc2cccc3c2CN(C2CCC(=O)NC2=O)C3=O)C[C@H]1C(=O)N1CCO[C@H](c2ccccc2)C1 (stereo partly shown)

>  <target_desc>
STAT6 (Homo sapiens)

>  <reported_result>
> 300 nM

$$$$
>  <compound>
CN(CCCC#Cc1cccc2c1CN(C1CCC(=O)NC1=O)C2=O)C(=O)CCN(C(=O)[C@@H]1CCCN1C(=O)[C@@H](NC(=O)c1cc2cc(C(F)(F)P(=O)(O)O)ccc2s1)C(C)(C)C)c1ccc(Br)cc1 (stereo partly shown)

>  <target_desc>
STAT6 (Homo sapiens)

>  <reported_result>
> 300 nM

$$$$
>  <compound>
CN(CCCC#Cc1cccc2c1CN(C1CCC(=O)NC1=O)C2=O)C(=O)CCN(C(=O)[C@@H]1CCCN1C(=O)[C@@H](NC(=O)c1cc2cc(C(F)(F)P(=O)(O)OCOC(=O)C(C)(C)C)ccc2s1)C(C)(C)C)c1ccc2occc2c1 (stereo partly shown)

>  <target_desc>
STAT6 (Homo sapiens)

>  <reported_result>
> 300 nM

$$$$
>  <compound>
CC(C)(C)[C@H](NC(=O)c1cc2cc(C(F)(F)P(=O)(O)O)ccc2s1)C(=O)N1C[C@@H](OCCCCCCC#Cc2cccc3c2CN(C2CCC(=O)NC2=O)C3=O)C[C@H]1C(=O)N1CCOC(c2cccc3ccccc23)C1 (stereo partly shown)

>  <target_desc>
STAT6 (Homo sapiens)

>  <reported_result>
> 300 nM

$$$$
>  <compound>
CC(C)(C)[C@H](NC(=O)c1cc2cc(C(F)(F)P(=O)(O)O)ccc2s1)C(=O)N1CCC[C@H]1C(=O)N(CCCCCCCC#Cc1cccc2c1CN(C1CCC(=O)NC1=O)C2=O)c1ccc(-c2nccs2)cc1 (stereo partly shown)

>  <target_desc>
STAT6 (Homo sapiens)

>  <reported_result>
> 300 nM

$$$$
>  <compound>
CC(C)(C)C(=O)OCOP(=O)(O)C(F)(F)c1ccc2sc(C(=O)N[C@H](C(=O)N3CCC[C@H]3C(=O)N(CCOCCOCC#Cc3cccc4c3CN(C3CCC(=O)NC3=O)C4=O)c3ccc4ccccc4c3)C(C)(C)C)cc2c1 (stereo partly shown)

>  <target_desc>
STAT6 (Homo sapiens)

>  <reported_result>
> 300 nM

$$$$
>  <compound>
Cc1ncsc1-c1ccc([C@H](CC(=O)NCCOCCOCCOCCC(=O)N[C@@H]2C[C@@H](C(=O)Nc3ncc(-c4ccccc4)s3)N(C(=O)[C@@H](NC(=O)c3cc4cc(C(F)(F)P(=O)(O)O)ccc4s3)C(C)(C)C)C2)NC(=O)[C@@H]2C[C@@H](O)CN2C(=O)[C@@H](NC(=O)C2(F)CC2)C(C)(C)C)cc1

>  <target_desc>
STAT6 (Homo sapiens)

>  <reported_result>
> 300 nM

$$$$
>  <compound>
CC(C)(C)[C@H](NC(=O)c1cc2cc(C(F)(F)P(=O)(O)O)ccc2s1)C(=O)N1C[C@@H](OCCN2CCC(Nc3cccc4c3CN(C3CCC(=O)NC3=O)C4=O)CC2)C[C@H]1C(=O)N1CCO[C@H](c2ccccc2)C1 (stereo partly shown)

>  <target_desc>
STAT6 (Homo sapiens)

>  <reported_result>
> 300 nM

$$$$
>  <compound>
CC(C)(C)[C@H](NC(=O)c1cc2cc(C(F)(F)P(=O)(O)O)ccc2s1)C(=O)N1CCN(C(=O)CCCCCC#Cc2ccc3c(c2)CN(C2CCC(=O)NC2=O)C3=O)C[C@H]1C(=O)N1CCO[C@H](c2ccccc2)C1 (stereo partly shown)

>  <target_desc>
STAT6 (Homo sapiens)

>  <reported_result>
> 300 nM

$$$$
>  <compound>
CC(C)(C)[C@H](NC(=O)c1cc2cc(C(F)(F)P(=O)(O)O)ccc2s1)C(=O)N1CCC[C@H]1C(=O)N(CCC(=O)NCCCC#Cc1cccc2c1CN(C1CCC(=O)NC1=O)C2=O)c1ccc2ncsc2c1 (stereo partly shown)

>  <target_desc>
STAT6 (Homo sapiens)

>  <reported_result>
> 300 nM

$$$$
>  <compound>
CC(C)(C)[C@H](NC(=O)c1cc2cc(C(F)(F)P(=O)(O)O)ccc2s1)C(=O)N1CCC[C@H]1C(=O)N(CCC(=O)NCCCC#Cc1cccc2c1CN(C1CCC(=O)NC1=O)C2=O)c1ccc(S(C)(=O)=O)cc1 (stereo partly shown)

>  <target_desc>
STAT6 (Homo sapiens)

>  <reported_result>
> 300 nM

$$$$
>  <compound>
CN(CCCC#Cc1cccc2c1CN(C1CCC(=O)NC1=O)C2=O)C(=O)CCN(C(=O)[C@@H]1CCCN1C(=O)[C@@H](NC(=O)c1cc2cc(C(F)(F)P(=O)(O)OCOC(=O)C(C)(C)C)ccc2s1)C(C)(C)C)c1ccc2cc(F)ccc2c1 (stereo partly shown)

>  <target_desc>
STAT6 (Homo sapiens)

>  <reported_result>
> 300 nM

$$$$
